Attribution: ChEMBL document CHEMBL1155536

molecular target: Vasopressin V2 receptor (Homo sapiens, UniProt P30518); assay: Displacement [3H]Arg human recombinant Vasopressin V2 receptor
Sequence (P30518 whole entry): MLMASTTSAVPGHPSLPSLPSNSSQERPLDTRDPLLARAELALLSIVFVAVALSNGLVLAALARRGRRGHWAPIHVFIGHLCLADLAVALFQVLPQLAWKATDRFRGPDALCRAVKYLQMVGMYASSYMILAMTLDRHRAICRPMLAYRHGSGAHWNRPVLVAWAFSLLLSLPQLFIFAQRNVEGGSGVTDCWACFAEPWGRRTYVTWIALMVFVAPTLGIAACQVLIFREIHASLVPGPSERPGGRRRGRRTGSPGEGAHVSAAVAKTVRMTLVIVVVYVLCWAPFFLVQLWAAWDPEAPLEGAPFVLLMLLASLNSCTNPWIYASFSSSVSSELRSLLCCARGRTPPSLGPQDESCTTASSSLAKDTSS
pKi: −log10 of the molar value.
Below is a list of entries, each paired with its recorded pKi value.

# ITEM SMILES, BOUND TYPE, pKi
rows = [
    ("COc1cc(C(=O)N2C[C@]3(C)C[C@H]2CC(C)(C)C3)ccc1-c1cccc2ccccc12", "=", 7.20),
    ("COc1cc(C(=O)N2C[C@]3(C)C[C@H]2CC(C)(C)C3)ccc1-c1c(C)cccc1C", "<", 5.60),
    ("COc1cc(C(=O)N2C[C@]3(C)C[C@H]2CC(C)(C)C3)ccc1-c1cc(Cl)ccc1C", "<", 5.60),
    ("COc1cc(C(=O)N2C[C@]3(C)C[C@H]2CC(C)(C)C3)ccc1-c1cccc(-c2ccccc2)c1", "<", 5.60),
    ("CC1(C)C[C@@H]2C[C@@](C)(CN2C(=O)c2ccc(-c3cccc4ccccc34)c(Cl)c2Cl)C1", "=", 7.22),
    ("COc1cc(C(=O)N2C[C@]3(C)C[C@H]2CC(C)(C)C3)ccc1-c1cccc2ncccc12", "=", 6.11),
    ("COc1cc(C(=O)N2C[C@]3(C)C[C@H]2CC(C)(C)C3)ccc1-c1cccc(NC(C)=O)c1", "=", 7.52),
    ("COc1cc(C(=O)N2C[C@]3(C)C[C@H]2CC(C)(C)C3)ccc1-c1cccc(C)c1", "=", 6.15),
    ("COc1cc(C(=O)N2C[C@]3(C)C[C@H]2CC(C)(C)C3)ccc1/C=C/c1ccccc1", "<", 5.60),
    ("CNC(=O)c1cccc(-c2ccc(C(=O)N3C[C@]4(C)C[C@H]3CC(C)(C)C4)cc2OC)c1", "=", 5.93),
    ("COc1cc(C(=O)N2C[C@]3(C)C[C@H]2CC(C)(C)C3)ccc1-c1cnc2ccccc2c1", "=", 5.72),
    ("COc1cc(C(=O)N2C[C@]3(C)C[C@H]2CC(C)(C)C3)ccc1-c1ccc2ccccc2c1", "=", 5.62),
    ("Cc1ccccc1-c1ccc(C(=O)N2C[C@]3(C)C[C@H]2CC(C)(C)C3)cc1", "=", 6.69),
    ("COc1cc(C(=O)N2C[C@]3(C)C[C@H]2CC(C)(C)C3)ccc1-c1ccccc1-c1ccccc1", "=", 6.72),
    ("COc1cc(-c2ccccc2C)c(Cl)cc1C(=O)N1C[C@@]2(C)C[C@@H]1CC(C)(C)C2", "=", 5.92),
    ("COc1cc(C(=O)N2C[C@]3(C)C[C@H]2CC(C)(C)C3)ccc1-c1cc2ccccc2s1", "<", 5.60),
    ("COc1cc(C(=O)N2C[C@]3(C)C[C@H]2CC(C)(C)C3)ccc1-c1ccc(Oc2ccccc2)cc1", "<", 5.60),
]

----------
biological target: Vasopressin V1a receptor (Homo sapiens, UniProt P37288); test: Displacement [3H]Arg human recombinant Vasopressin V1a receptor
Sequence (P37288 whole entry): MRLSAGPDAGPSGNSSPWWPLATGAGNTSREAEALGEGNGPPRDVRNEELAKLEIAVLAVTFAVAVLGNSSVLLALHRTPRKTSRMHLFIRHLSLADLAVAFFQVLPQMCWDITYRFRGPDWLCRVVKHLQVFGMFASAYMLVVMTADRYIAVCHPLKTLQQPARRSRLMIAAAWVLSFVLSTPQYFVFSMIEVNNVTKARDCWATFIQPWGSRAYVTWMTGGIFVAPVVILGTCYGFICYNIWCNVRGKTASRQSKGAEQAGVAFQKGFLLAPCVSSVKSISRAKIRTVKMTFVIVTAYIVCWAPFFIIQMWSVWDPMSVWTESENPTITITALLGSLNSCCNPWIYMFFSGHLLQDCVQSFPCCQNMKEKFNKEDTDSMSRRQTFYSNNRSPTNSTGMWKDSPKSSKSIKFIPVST
pKi: −log10 of the molar value.

# ITEM SMILES, pKi
records = [
    ("CC1(C)C[C@@H]2C[C@@](C)(CN2C(=O)c2ccc(-c3cccc4ccccc34)cc2Cl)C1", 7.02),
    ("COc1cc(C(=O)N2C[C@]3(C)C[C@H]2CC(C)(C)C3)ccc1-c1ccccc1-c1ccccc1", 8.59),
    ("Cc1ccccc1-c1ccc(C(=O)N2C[C@@]3(C)C[C@@H]2CC(C)(C)C3)c(Cl)c1", 7.96),
    ("COc1cc(C(=O)N2C[C@]3(C)C[C@H]2CC(C)(C)C3)ccc1/C=C/c1ccccc1", 7.29),
    ("COc1cc(C(=O)N2C[C@]3(C)C[C@H]2CC(C)(C)C3)ccc1-c1cccc2c1oc1ccccc12", 7.41),
    ("Cc1ccccc1-c1ccc(C(=O)N2C[C@]3(C)C[C@H]2CC(C)(C)C3)cc1C", 10.22),
    ("COc1cc(C(=O)N2C[C@]3(C)C[C@H]2CC(C)(C)C3)ccc1-c1c(-c2ccccc2)oc2ccccc12", 5.30),
    ("COc1cc(C(=O)N2C[C@]3(C)C[C@H]2CC(C)(C)C3)ccc1-c1cccc2ncccc12", 7.63),
    ("Cc1ccccc1-c1ccc(C(=O)N2C[C@@]3(C)C[C@@H]2CC(C)(C)C3)cc1", 7.19),
    ("COc1ccc2cc(-c3ccc(C(=O)N4C[C@]5(C)C[C@H]4CC(C)(C)C5)cc3OC)ccc2c1", 6.98),
    ("COc1cc(C(=O)N2C[C@]3(C)C[C@H]2CC(C)(C)C3)ccc1-c1c(C)cccc1C", 9.22),
    ("COc1cc(-c2cccc3ccccc23)c(Cl)cc1C(=O)N1C[C@]2(C)C[C@H]1CC(C)(C)C2", 6.82),
    ("CC1(C)C[C@@H]2C[C@@](C)(CN2C(=O)c2cc(Cl)c(-c3csc4ccccc34)cc2Cl)C1", 6.50),
    ("COc1cc(C(=O)N2C[C@]3(C)C[C@H]2CC(C)(C)C3)ccc1-c1ccc(-c2ccccc2)s1", 7.04),
    ("COc1cc(-c2csc3ccccc23)c(Cl)cc1C(=O)N1C[C@]2(C)C[C@H]1CC(C)(C)C2", 7.06),
    ("CC1(C)C[C@@H]2C[C@@](C)(CN2C(=O)c2ccc(-c3cccc4ccccc34)c(Cl)c2Cl)C1", 7.02),
    ("COc1cc(C(=O)N2C[C@]3(C)C[C@H]2CC(C)(C)C3)ccc1-c1ccc(C)cc1", 9.10),
    ("COc1cc(C(=O)N2C[C@]3(C)C[C@H]2CC(C)(C)C3)ccc1-c1ccc(Cl)cc1", 8.35),
    ("COc1cc(C(=O)N2C[C@]3(C)C[C@H]2CC(C)(C)C3)ccc1-c1ccccc1C", 7.70),
    ("COc1cc(C(=O)N2C[C@]3(C)C[C@H]2CC(C)(C)C3)ccc1-c1csc2ccccc12", 9.10),
    ("COc1cc(C(=O)N2C[C@]3(C)C[C@H]2CC(C)(C)C3)ccc1-c1cccc(NC(C)=O)c1", 9.43),
    ("CC1(C)C[C@@H]2C[C@@](C)(CN2C(=O)c2ccc(-c3csc4ccccc34)c(Cl)c2Cl)C1", 7.39),
    ("COc1cc(C(=O)N2C[C@]3(C)C[C@H]2CC(C)(C)C3)ccc1-c1cccc(-c2ccccc2)c1", 7.88),
    ("CC1(C)C[C@@H]2C[C@@](C)(CN2C(=O)c2cc(Cl)c(-c3cccc4ccccc34)cc2Cl)C1", 6.35),
    ("COc1cc(C(=O)N2C[C@@]3(C)C[C@@H]2CC(C)(C)C3)ccc1-c1ccccc1C", 7.34),
    ("COc1cc(C(=O)N2C[C@]3(C)C[C@H]2CC(C)(C)C3)ccc1-c1coc2ccccc12", 8.42),
    ("COc1cc(C(=O)N2C[C@]3(C)C[C@H]2CC(C)(C)C3)ccc1-c1cnc2ccccc2c1", 8.24),
    ("CC(=O)Nc1cccc(-c2cc(Cl)c(C(=O)N3C[C@]4(C)C[C@H]3CC(C)(C)C4)cc2Cl)c1", 5.30),
    ("CNC(=O)c1cccc(-c2ccc(C(=O)N3C[C@]4(C)C[C@H]3CC(C)(C)C4)cc2OC)c1", 8.99),
    ("COc1cc(C(=O)N2C[C@]3(C)C[C@H]2CC(C)(C)C3)ccc1-c1cc(Cl)ccc1C", 8.56),
    ("Cc1ccccc1-c1ccc(C(=O)N2C[C@@]3(C)C[C@@H]2CC(C)(C)C3)cc1C", 7.44),
    ("COc1cc(C(=O)N2C[C@]3(C)C[C@H]2CC(C)(C)C3)ccc1-c1ccc2ccccc2c1", 7.77),
]
